Just for reference, the supplement of paper PMC7125110 is where these values come from.

B1: glmS ribozyme (parent)
chain: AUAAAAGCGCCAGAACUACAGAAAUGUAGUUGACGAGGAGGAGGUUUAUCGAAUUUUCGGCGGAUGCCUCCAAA

Variants of: B1
Assay: self-cleavage kobs at 640 uM GlcN6P; higher = faster cleavage; RNA array
Conditions: with glucosamine-6-phosphate
Fewer inactive variants are shown than the library holds.
Please note: criterion met applies when self-cleavage kobs at 640 uM GlcN6P is 0.0007 s⁻¹ or greater, and criterion not met applies otherwise.

Data request: Does self-cleavage kobs at 640 uM GlcN6P meet or surpass 0.0007 s⁻¹ for U31C A42G ?
Data returned: criterion met

Data request: Evaluate G44U G60C : self-cleavage kobs at 640 uM GlcN6P at minimum 0.0007 s⁻¹?
Data returned: criterion not met

Data request: Given C34A G38U U54A , state whether its self-cleavage kobs at 640 uM GlcN6P is at least 0.0007 s⁻¹.
Data returned: criterion not met

Data request: Please tell me: is the variant A64U C68U at or over 0.0007 s⁻¹ in terms of self-cleavage kobs at 640 uM GlcN6P?
Data returned: criterion not met

Data request: Quick check, self-cleavage kobs at 640 uM GlcN6P >= 0.0007 s⁻¹? G60U G62A C67U
Data returned: criterion not met

Data request: # check: self-cleavage kobs at 640 uM GlcN6P of A6G G60A is greater than or equal to 0.0007 s⁻¹
Data returned: criterion not met

Data request: Identify whether the reported self-cleavage kobs at 640 uM GlcN6P of the following variant is 0.0007 s⁻¹ or greater: A39U A64C
Data returned: criterion not met

Data request: Say whether C8G C71G shows self-cleavage kobs at 640 uM GlcN6P of 0.0007 s⁻¹ or more.
Data returned: criterion not met

Data request: Is self-cleavage kobs at 640 uM GlcN6P for G41U C50A U65A at or above 0.0007 s⁻¹?
Data returned: criterion not met

Data request: Does A15G G29U have a reported self-cleavage kobs at 640 uM GlcN6P of at least 0.0007 s⁻¹?
Data returned: criterion not met

Data request: Answer whether self-cleavage kobs at 640 uM GlcN6P of U55A C71U is greater than or equal to 0.0007 s⁻¹.
Data returned: criterion met

Data request: Reported self-cleavage kobs at 640 uM GlcN6P at or above 0.0007 s⁻¹? U30C U55G
Data returned: criterion not met

Data request: For this variant, is measured self-cleavage kobs at 640 uM GlcN6P 0.0007 s⁻¹ or higher? C11A U57C
Data returned: criterion not met

Data request: Check if self-cleavage kobs at 640 uM GlcN6P >= 0.0007 s⁻¹ (inclusive). Item: G13C G32A U45A A52U G60A G62C A64G C68U
Data returned: criterion not met

Data request: Would you say A14C C16U G44U U69G shows self-cleavage kobs at 640 uM GlcN6P at minimum 0.0007 s⁻¹?
Data returned: criterion not met

Data request: Form field: self-cleavage kobs at 640 uM GlcN6P at least 0.0007 s⁻¹? Entry: G38A G40U G43A A52C
Data returned: criterion not met

Data request: Quick check, self-cleavage kobs at 640 uM GlcN6P >= 0.0007 s⁻¹? G9U A36G A42U G44U
Data returned: criterion not met

Data request: Decide: self-cleavage kobs at 640 uM GlcN6P of "A39U" >= 0.0007 s⁻¹?
Data returned: criterion met

Data request: Decide: self-cleavage kobs at 640 uM GlcN6P of G29U U49C C50G C70A >= 0.0007 s⁻¹?
Data returned: criterion not met

Data request: Determine whether measured self-cleavage kobs at 640 uM GlcN6P meets or exceeds 0.0007 s⁻¹ for G9U A64C
Data returned: criterion not met

Data request: Can C11A A36U U56A C68G C70A be said to have self-cleavage kobs at 640 uM GlcN6P at or above 0.0007 s⁻¹?
Data returned: criterion met
